Here, each record is paired with measured activity, negative = inhibition data.
Target: Cytochrome P450 2D6 (Homo sapiens) (UniProt P10635)
Sequence (P10635 whole entry, looked up): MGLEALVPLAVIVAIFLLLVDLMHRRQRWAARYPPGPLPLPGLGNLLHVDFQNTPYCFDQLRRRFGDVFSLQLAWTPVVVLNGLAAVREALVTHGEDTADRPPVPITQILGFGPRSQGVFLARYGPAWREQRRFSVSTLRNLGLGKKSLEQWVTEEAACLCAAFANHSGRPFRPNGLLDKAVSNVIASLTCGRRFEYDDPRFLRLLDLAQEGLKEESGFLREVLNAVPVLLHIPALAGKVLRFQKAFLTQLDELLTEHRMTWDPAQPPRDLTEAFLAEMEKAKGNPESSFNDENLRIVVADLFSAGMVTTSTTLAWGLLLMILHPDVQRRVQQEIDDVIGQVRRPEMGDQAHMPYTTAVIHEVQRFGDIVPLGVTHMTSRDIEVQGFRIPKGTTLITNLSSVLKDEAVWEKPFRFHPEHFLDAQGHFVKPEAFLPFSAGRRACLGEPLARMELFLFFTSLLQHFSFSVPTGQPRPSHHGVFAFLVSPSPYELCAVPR
Assay: Cytochrome panel assay with activity outcomes; note: % is set by controls: 0 for no effect and ±100 for the full control effect
Conditions: recombinant CYP, pro-luciferin dealkylation, luminescence, p450-cyp2d6; series mostly up to 57.1 µM
Experimental: The P450 gene superfamily is involved in the metabolism and clearance of xenobiotics. This assay used various human CYP P450 isozymes to measure the dealkylation of various pro-luciferin substrates to luciferin. The luciferin is then measured by luminescence after the addition of a luciferase detection reagent. […] Inhibitors and some substrates limit the production of luciferin, and decrease measured luminescence. […] 8, Detection, 1 sec, ViewLux luminescent read […]
Hit rate of the full screen: of about 16,000 compounds, about 2,600 (16%) were called active. Roughly 20% stayed inconclusive and do not appear here. These entries were drawn from the full list.

molecule | studySystem | activity, negative = inhibition
COC(=O)[C@@H]1O[C@@H](SCCN)[C@@H](O)[C@H](O)[C@H]1O | Cytochrome P450 2D6 (Homo sapiens) (UniProt P10635) | -0.405% [at 11.4 µM] (inactive)
Nc1nc(C(=O)O)c(N=Nc2ccccc2)c(=O)[nH]1 | Cytochrome P450 2D6 (Homo sapiens) (UniProt P10635) | -12.3% [at 11.4 µM] (inactive)
CCCNC(=O)OC[C@@H]1O[C@H](CCO/N=C(\C)CCN2CCc3nc(CC)c(CC)cc3C2)C=C[C@@H]1Oc1ccc(OC)cc1 | Cytochrome P450 2D6 (Homo sapiens) (UniProt P10635) | -13.6% [at 11.4 µM] (inactive)
NNC(=O)CNc1cccc(Br)c1 | Cytochrome P450 2D6 (Homo sapiens) (UniProt P10635) | -9.21% [at 11.4 µM] (inactive)
OC[C@@H]1O[C@H](n2cnc3c(/C=C(\O)c4ccccc4)ncnc32)[C@H](O)[C@@H]1O | Cytochrome P450 2D6 (Homo sapiens) (UniProt P10635) | 3.57% [at 11.4 µM] (inactive)
CC(C)[C@@H]1O[C@H](/C=C\c2ccccc2)OCC1(C)C | Cytochrome P450 2D6 (Homo sapiens) (UniProt P10635) | -1.61% [at 11.4 µM] (inactive)
O=C(O)c1cscc1Cc1cccs1 | Cytochrome P450 2D6 (Homo sapiens) (UniProt P10635) | 14.2% [at 11.4 µM] (inactive)
O=C1[C@@H]2[C@H]3[C@H](O)[C@H](O)C/C(=N/OCc4ccccc4)[C@H]3CC[C@H]2C(=O)N1c1ccc(F)cc1F | Cytochrome P450 2D6 (Homo sapiens) (UniProt P10635) | -7.87% [at 11.4 µM] (inactive)
Cc1cc(N=Cc2c(CO)cnc(C)c2O)c(N=Cc2c(CO)cnc(C)c2O)cc1C.[Zn] | Cytochrome P450 2D6 (Homo sapiens) (UniProt P10635) | -15.5% [at 11.4 µM] (inactive)
O=c1[nH]c(SCc2cccc([N+](=O)[O-])c2)nc2nc[nH]c12 | Cytochrome P450 2D6 (Homo sapiens) (UniProt P10635) | 10.7% [at 11.4 µM] (inactive)
O=C1c2ccccc2-c2ccc(NC(=O)[C@H]3CCCC[C@@H]3C(=O)O)cc21 | Cytochrome P450 2D6 (Homo sapiens) (UniProt P10635) | -8.68% [at 11.4 µM] (inactive)
Cc1ccc(S(=O)(=O)N[C@H](C(=O)O)C(C)C)cc1 | Cytochrome P450 2D6 (Homo sapiens) (UniProt P10635) | 3.72% [at 11.4 µM] (inactive)
CC(=O)OC[C@@H]1O[C@@H](O/N=C2/C[C@@H](O)[C@@H](O)[C@@H]3[C@@H]4C(=O)N(C(C)(C)C)C(=O)[C@H]4CC[C@H]23)[C@H](OC(C)=O)[C@H](OC(C)=O)[C@@H]1OC(C)=O | Cytochrome P450 2D6 (Homo sapiens) (UniProt P10635) | 3.1% [at 11.4 µM] (inactive)
CCOC(=O)c1cnc(N(C)C)nc1SC(=N)N | Cytochrome P450 2D6 (Homo sapiens) (UniProt P10635) | -3.04% [at 11.4 µM] (inactive)
C#CCSc1n[nH]c(-c2ccco2)n1 | Cytochrome P450 2D6 (Homo sapiens) (UniProt P10635) | -1.01% [at 11.4 µM] (inactive)
Cc1ccc(S(=O)(=O)N[C@H](CO)C(=O)O)cc1 | Cytochrome P450 2D6 (Homo sapiens) (UniProt P10635) | 1.97% [at 11.4 µM] (inactive)
Cn1cnc([N+](=O)[O-])c1SCC(=O)O | Cytochrome P450 2D6 (Homo sapiens) (UniProt P10635) | -1.18% [at 11.4 µM] (inactive)
CCOC(=O)CCN1C(=O)[C@H]2[C@H]3[C@H](O)[C@H](O)C/C(=N/OC/C=C(\C)CCC=C(C)C)[C@@H]3CC[C@@H]2C1=O | Cytochrome P450 2D6 (Homo sapiens) (UniProt P10635) | 0.883% [at 11.4 µM] (inactive)
CC(=O)OC[C@@H]1O[C@@H](O/N=C2/C[C@@H](O)[C@@H](O)[C@@H]3[C@@H]4C(=O)N(c5cccc(Oc6ccccc6)c5)C(=O)[C@H]4CC[C@H]23)[C@H](OC(C)=O)[C@H](OC(C)=O)[C@@H]1OC(C)=O | Cytochrome P450 2D6 (Homo sapiens) (UniProt P10635) | 0.346% [at 11.4 µM] (inactive)
Nc1[nH]c(=O)nc2c1ncn2[C@H]1O[C@@H](CO)[C@@H](O)[C@@H]1O | Cytochrome P450 2D6 (Homo sapiens) (UniProt P10635) | 7.59% [at 11.4 µM] (inactive)
O=S(=O)(O)[C@@H](CO)c1ccccc1 (tested in a mixture with another compound) | Cytochrome P450 2D6 (Homo sapiens) (UniProt P10635) | 14% [at 11.4 µM] (inactive)
C=C[C@]1(C)C[C@H](OC(=O)CO)[C@]2(C)C3C(=O)CC[C@]3(CC[C@H]2C)[C@H](C)[C@H]1O (stereo not given in full) | Cytochrome P450 2D6 (Homo sapiens) (UniProt P10635) | -10.6% [at 11.4 µM] (inactive)
C#CCCCO/N=C1/C[C@@H](O)[C@@H](O)[C@@H]2[C@@H]3C(=O)N(CCC(=O)OCC)C(=O)[C@H]3CC[C@@H]12 | Cytochrome P450 2D6 (Homo sapiens) (UniProt P10635) | -5.32% [at 11.4 µM] (inactive)
N[C@@H](Cc1cccc([N+](=O)[O-])c1)C(=O)O | Cytochrome P450 2D6 (Homo sapiens) (UniProt P10635) | 1.07% [at 11.4 µM] (inactive)
COc1ccc(-c2nc(N)c3ncn([C@H]4O[C@@H](CO)[C@@H](O)[C@@H]4O)c3n2)cc1 | Cytochrome P450 2D6 (Homo sapiens) (UniProt P10635) | 1.32% [at 11.4 µM] (inactive)
CC(C)C12CC[C@@]3(CC[C@H]4[C@@](C)(CCC[C@]4(C)C(=O)O)[C@@H]3C1)[C@@H](CN)C2 | Cytochrome P450 2D6 (Homo sapiens) (UniProt P10635) | 6.15% [at 11.4 µM] (inactive)
O=C1[C@H]2[C@H]3[C@H](O)[C@H](O)C/C(=N/OC[C@@H](O)COCc4ccco4)[C@H]3CC[C@@H]2C(=O)N1C[C@@H]1CCCO1 | Cytochrome P450 2D6 (Homo sapiens) (UniProt P10635) | 14.8% [at 11.4 µM] (inactive)
C#CCCCO/N=C1/C[C@@H](O)[C@@H](O)[C@@H]2[C@@H]3C(=O)N(Cc4ccccc4)C(=O)[C@H]3CC[C@@H]12 | Cytochrome P450 2D6 (Homo sapiens) (UniProt P10635) | 19.7% [at 11.4 µM] (inactive)
CO[C@@H]1COC(=O)CC=C[C@@H](C)[C@@H]2C=C[C@@H](O)[C@@H](COC(=O)C/C=C\[C@H]1C)O2 | Cytochrome P450 2D6 (Homo sapiens) (UniProt P10635) | 20% [at 11.4 µM] (inactive)
COc1ccc(C(=O)CCN(C)C)c2ccccc12 | Cytochrome P450 2D6 (Homo sapiens) (UniProt P10635) | -4.14% [at 11.4 µM] (inactive)
CCOC(=O)CCN1C(=O)[C@H]2[C@H]3[C@H](O)[C@H](O)C/C(=N/OC/C=C(\C)CCC=C(C)C)[C@H]3CC[C@@H]2C1=O | Cytochrome P450 2D6 (Homo sapiens) (UniProt P10635) | 1.08% [at 11.4 µM] (inactive)
CCCCN(c1ccccc1)c1ncnc2c1cnn2C | Cytochrome P450 2D6 (Homo sapiens) (UniProt P10635) | -12.5% [at 11.4 µM] (inactive)
O=C(O)c1cccc(SSc2cccc(C(=O)O)c2)c1 | Cytochrome P450 2D6 (Homo sapiens) (UniProt P10635) | -12% [at 11.4 µM] (inactive)
O=C(O)CS(=O)c1ccc2c3c(cccc13)C(=O)c1ccccc1-2 (stereo not given) | Cytochrome P450 2D6 (Homo sapiens) (UniProt P10635) | 21.8% [at 11.4 µM] (inactive)
CO[C@@H]1COC(=O)C/C=C\[C@H](C)COC(=O)[C@H](Cc2ccccc2)NC(=O)C/C=C\[C@H]1C | Cytochrome P450 2D6 (Homo sapiens) (UniProt P10635) | 9.42% [at 11.4 µM] (inactive)
